Test system: Gram-negative bacteria (Enterobacterales, Pseudomonas, Acinetobacter)
Conditions: number of strains susceptible; CLSI; Hospital S. João, Porto; patients' blood cultures
Under this convention, label 1 denotes CLSI RM S strictly below 70 and label 0 denotes CLSI RM S at or above 70.

{"columns": ["item-smiles", "group"],
 "data": [
  ["CC1(C)S[C@@H]2[C@H](NC(=O)[C@H](N)c3ccccc3)C(=O)N2[C@H]1C(=O)O", "label 1"],
  ["CC(C)(O/N=C(\\C(=O)N[C@@H]1C(=O)N2C(C(=O)[O-])=C(C[n+]3ccccc3)CS[C@H]12)c1csc(N)n1)C(=O)O", "label 0"],
  ["C[C@@H](O)[C@H]1C(=O)N2C(C(=O)O)=C(S[C@@H]3CN[C@H](C(=O)N(C)C)C3)[C@H](C)[C@H]12", "label 0"],
  ["NCC[C@H](O)C(=O)N[C@@H]1C[C@H](N)[C@@H](O[C@H]2O[C@H](CN)[C@@H](O)[C@H](O)[C@H]2O)[C@H](O)[C@H]1O[C@H]1O[C@H](CO)[C@@H](O)[C@H](N)[C@H]1O", "label 0"]
]}

Provenance of the data: patent US20250154554A1
